Form field: pIC50 (one value per entry).
Tested on: HCT-8
Experiment: Cytotoxicity against human HCT8 cells after 24 hrs by MTT assay
Format: functional, cell-based
Conditions: HCT-8, 24 h
pIC50: −log10 of the molar value.

// "C=C1[C@H]2O[C@@H](OCC)[C@@H]3[C@](CCl)(O2)[C@@H](OC(C)=O)C[C@]13O" : pIC50 value = < 5.00

// "C=C1[C@H]2O[C@H](OC)[C@@H]3[C@](CCl)(O2)[C@@H](OC(C)=O)C[C@]13O" : pIC50 value = < 5.00

// "C=C1[C@H]2O[C@H](OCC)[C@@H]3[C@](CCl)(O2)[C@@H](OC(C)=O)C[C@]13O" : pIC50 value = < 5.00

// "C=C1[C@H]2O[C@@H](O)[C@@H]3[C@](CCl)(O2)[C@@H](OC(C)=O)C[C@]13O" : pIC50 value = < 5.00

// CC(=O)O[C@H]1C[C@]2(O)C(COC(=O)[C@H](OC(=O)CC(C)C)C(C)C)=CO[C@@H](OC(=O)CC(C)C)[C@@H]2[C@@]1(O)CCl [VOLVALTRATE B] : pIC50 value = 5.49

// "C=C1[C@H]2O[C@@H](OC)[C@@H]3[C@](CCl)(O2)[C@@H](OC(C)=O)C[C@]13O" : pIC50 value = < 5.00
